target: CXCR4 receptor (human, UniProt P61073 1-352); assay: cell-based or functional assay
Sequence (P61073 whole entry): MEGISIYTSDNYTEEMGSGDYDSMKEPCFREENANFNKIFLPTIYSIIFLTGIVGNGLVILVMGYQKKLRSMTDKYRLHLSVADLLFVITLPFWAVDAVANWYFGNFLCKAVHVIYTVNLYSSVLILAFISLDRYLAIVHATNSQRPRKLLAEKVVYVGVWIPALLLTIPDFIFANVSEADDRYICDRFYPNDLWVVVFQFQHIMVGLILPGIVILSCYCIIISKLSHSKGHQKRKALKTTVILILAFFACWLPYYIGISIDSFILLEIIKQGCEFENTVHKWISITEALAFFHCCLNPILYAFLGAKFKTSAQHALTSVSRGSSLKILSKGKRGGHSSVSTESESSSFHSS
* marks the point of attachment. Palmitoyl = CCCCCCCCCCCCCCCC(=O)*
READOUT NAME: AUC (% of vehicle), chemotaxis, CEM, 1.0 uM

| BINDER | REPORTED MEASUREMENT |
| --- | --- |
| Palmitoyl-SKLSHSKGHQKRKALK-NH2 (SMILES CCCCCCCCCCCCCCCC(=O)N[C@@H](CO)C(=O)N[C@@H](CCCCN)C(=O)N[C@@H](CC(C)C)C(=O)N[C@@H](CO)C(=O)N[C@@H](Cc1c[nH]cn1)C(=O)N[C@@H](CO)C(=O)N[C@@H](CCCCN)C(=O)NCC(=O)N[C@@H](Cc1c[nH]cn1)C(=O)N[C@@H](CCC(N)=O)C(=O)N[C@@H](CCCCN)C(=O)N[C@@H](CCCNC(=N)N)C(=O)N[C@@H](CCCCN)C(=O)N[C@@H](C)C(=O)N[C@@H](CC(C)C)C(=O)N[C@@H](CCCCN)C(N)=O) [CXCR4 i3 loop compound 101] | 75.5 % of vehicle |

// moving on: another record for AUC (% of vehicle), chemotaxis, CEM, 1.0 uM
Return reported AUC (% of vehicle), chemotaxis, CEM, 1.0 uM; argument: Palmitoyl-LSHSKGHQKRKALK-NH2 (SMILES CCCCCCCCCCCCCCCC(=O)N[C@@H](CC(C)C)C(=O)N[C@@H](CO)C(=O)N[C@@H](Cc1c[nH]cn1)C(=O)N[C@@H](CO)C(=O)N[C@@H](CCCCN)C(=O)NCC(=O)N[C@@H](Cc1c[nH]cn1)C(=O)N[C@@H](CCC(N)=O)C(=O)N[C@@H](CCCCN)C(=O)N[C@@H](CCCNC(=N)N)C(=O)N[C@@H](CCCCN)C(=O)N[C@@H](C)C(=O)N[C@@H](CC(C)C)C(=O)N[C@@H](CCCCN)C(N)=O) [CXCR4 i3 loop compound 95] 77.5 % of vehicle
